# credit: PubChem BioAssay (NCI)

- Test system: NCI-H522 lung
- method.description: NCI tumour cell line growth inhibition, 48 h
measurement.label: TGI

> print(dat)
                                   compound  measured.value
1              CN(C)Cc1cc(C=O)cc(CN(C)C)c1O        > 100 µM
2  CCOC(=O)C(C)(C)C(O)C(C)C (centres undefined)        > 100 µM
3  NCCC(=O)N[C@@H](Cc1cc(O)c(O)c(SCC(NC(=O)CC[C@H](N)C(=O)O)C(=O)NCC(=O)O)c1)C(=O)O (some centres undefined)         > 50 µM
4  Cc1ncsc1-c1ccc(CNC(=O)[C@@H]2C[C@@H](O)CN2C(=O)[C@@H](NC(=O)C2(C#N)CC2)C(C)(C)C)cc1        > 100 µM

====

- Test system: RPMI-8226 leukemia
- method.description: NCI tumour cell line growth inhibition, 48 h
measurement.label: TGI

> print(dat)
                                    molecule  measured.value
 1  CC(=O)NNC(=O)C1CCCCN1 (stereo unspecified)        > 100 µM
 2  COc1ccc(OC)c(CC(C)N)c1 (stereo unspecified)        > 100 µM
 3  Cc1ccc(-c2nc(-c3cnccn3)n(C3OC(CO)C(O)C(O)C3O)n2)cc1 (stereo unspecified)        > 100 µM
 4  Cc1ncsc1-c1ccc(CNC(=O)[C@@H]2C[C@@H](O)CN2C(=O)[C@@H](NC(=O)C2(C#N)CC2)C(C)(C)C)cc1        > 100 µM
 5  CC(C)(C)OC(=O)NC(CO)c1cccc(OCc2ccccc2)c1 (stereo unspecified)        > 100 µM
 6  CC[C@@H]1C[C@H]2CC3c4[nH]c5ccc(O)cc5c4CCN(C2)C31        > 100 µM
 7                           C#CCCCOc1ncccn1        > 100 µM
 8  CC(C)(C)c1ccc(/C=N/NC(=O)CSCC(=O)N/N=C/c2ccc(C(C)(C)C)cc2)cc1        > 100 µM
 9  O=[N+]([O-])c1c(C=Nc2ccccc2)oc(-c2ccc3c(c2)OCO3)c1-c1ccc2c(c1)OCO2        > 100 µM
10  CC(C)(C)OC(=O)C1CC[C@@H](CC(=O)Oc2ccc([N+](=O)[O-])cc2)N1 (stereo partly specified)        > 100 µM
11  COc1ccc2[nH]cc(CCNC(=O)[C@](O)(Cc3cn(C)c4ccccc34)[C@@]3(O)OCC(O)C3O)c2c1 (stereo partly specified)        > 100 µM

====

- Test system: SF-268 CNS
- method.description: NCI tumour cell line growth inhibition, 48 h
measurement.label: TGI

> print(dat)
                                item.smiles  measurement.label  measured.value
1  COc1cccc2c1c(C1=C(c3cn(C)c4ccccc34)C(=O)NC1=O)cn2C                TGI         > 25 µM
2  Nc1c(C(=O)c2ccc(CCCN3CCOCC3)cc2)cnn1-c1ccc(F)cc1                TGI         > 25 µM
3  COc1cc(S(=O)(=O)Nc2nc(-c3ccc(N4C(=O)/C(=C/c5ccccc5[N+](=O)[O-])N=C4c4ccccc4)cc3)cs2)ccc1Cl                TGI        > 100 µM
4  CN(C)CCCNC(=O)c1cncnc1Nc1ccc(OCc2cccc(F)c2)c(Cl)c1                TGI         3.34 µM

====

- Tested on: SK-MEL-28 melanoma
- method.description: NCI tumour cell line growth inhibition, 48 h
measurement.label: TGI

> print(dat)
                                   compound       system.tested  measured.value
1           COc1cc(/C=C\c2cccnc2)cc(OC)c1OC  SK-MEL-28 melanoma        > 100 µM
2    O=C(Oc1ccc(Cl)cc1[N+](=O)[O-])c1ccccc1  SK-MEL-28 melanoma        > 100 µM
3   CC1=C([Te]c2ccc(O)cc2)C(=O)c2ccccc2C1=O  SK-MEL-28 melanoma         6.09 µM
4  COc1ccc(OC)c(CC(C)N)c1 (configuration not stated)  SK-MEL-28 melanoma        > 100 µM
5  CNC(=O)c1cccc2c(Nc3ccc(NS(C)(=O)=O)cc3OC)c3cccc(C)c3nc12  SK-MEL-28 melanoma         10.9 µM
6              CN(C)Cc1cc(C=O)cc(CN(C)C)c1O  SK-MEL-28 melanoma        > 100 µM
7  COc1cc(S(=O)(=O)Nc2nc(-c3ccc(N4C(=O)/C(=C/c5ccccc5[N+](=O)[O-])N=C4c4ccccc4)cc3)cs2)ccc1Cl  SK-MEL-28 melanoma        > 100 µM

====

- Test system: MALME-3M melanoma
- method.description: NCI tumour cell line growth inhibition, 48 h

molecule	system.tested	TGI
COc1c(C)cc2c(c1O)C1NC(C2)[C@H](O)N2C3COC(=O)[C@@]4(CS[C@@H](c5c(OC(C)=O)c(C)c6c(c53)OCO6)C12)NCCC1=C4NC2C=CC=CC12 (stereo not given in full)	MALME-3M melanoma	< 0.01 µM
CC[C@@H]1C[C@H]2CC3c4[nH]c5ccc(O)cc5c4CCN(C2)C31	MALME-3M melanoma	> 100 µM
Cc1ccc(C(=O)OCC(C)C)cc1N=NN(C)C	MALME-3M melanoma	> 100 µM
C#CCCCOc1ncccn1	MALME-3M melanoma	> 100 µM
CSc1nc(SC)c2ncn(C3CC(Oc4ccc(C)cc4)C(COc4ccc(C)cc4)O3)c2n1 (stereo not given)	MALME-3M melanoma	> 100 µM
CC(C)(C)OC(=O)NC1CCC(C(C)(C)C)CC1 (stereo not given)	MALME-3M melanoma	> 93.8 µM
C1=NCCNCCNCCN=Cc2ccccc2OCc2cccc(n2)COc2ccccc21	MALME-3M melanoma	> 100 µM
CC(=O)[C@@]1(O)[C@H](C)C[C@H]2[C@@H]3C=C(C)C4=Cc5c(cnn5-c5ccccc5)C[C@]4(C)[C@H]3[C@@H](O)C[C@@]21C	MALME-3M melanoma	5.36 µM
COc1cc(-c2nn(-c3cccc(NC(=O)c4ccc(N5CCOCC5)c(C(F)(F)F)c4)c3)cc2-c2ccncc2)ccc1Cl	MALME-3M melanoma	1.54 µM
CCN(CC)CCCC(C)N=c1cc(Nc2cc(=NC(C)CCCN(CC)CC)c3cc(OC)ccc3o2)oc2ccc(OC)cc12 (stereo not given)	MALME-3M melanoma	1.74 µM
CCOP(=O)(OCC)[C@H]1OC(C)(C)O[C@@H]1CO	MALME-3M melanoma	> 100 µM
CC(C)(C)c1ccc(/C=N/NC(=O)CSCC(=O)N/N=C/c2ccc(C(C)(C)C)cc2)cc1	MALME-3M melanoma	24.8 µM
COC(=O)/C=C\C(C#N)(C#N)N=Cc1ccc(Br)s1	MALME-3M melanoma	4.27 µM
COC(=O)/C=C(/OC)[C@H](C)[C@H](/C=C/c1csc(-c2csc(C(C)C)n2)n1)OC	MALME-3M melanoma	> 100 µM
CCCCC(=O)OC[n+]1ccc2c(C)c3[nH]c4ccccc4c3c(C)c2c1	MALME-3M melanoma	2.98 µM
COC(=O)c1ccc(Cl)cc1NC(=O)C1CCCCC1	MALME-3M melanoma	> 100 µM
CC[C@]12C=CCN3CC[C@@]4(c5cc(Br)c(OC)cc5N(C)[C@H]4[C@@](O)(C(=O)N[C@@H](Cc4ccc(O)cc4)C(=O)OC)[C@@H]1O)[C@@H]32	MALME-3M melanoma	29.1 µM
O=C1c2ccccc2-c2c1c1c(O)cccc1n2-c1ccccc1	MALME-3M melanoma	> 100 µM
CCCCCCCC(=O)OCC1OC(OC)C(NC(=O)N(CCCl)N=O)C(O)C1O (stereo not given)	MALME-3M melanoma	28.5 µM
CC/C(=C(/c1ccc(O)cc1)c1ccc(OCCN2CCCCC2)cc1)c1ccc(OC)cc1	MALME-3M melanoma	2.98 µM
O=[N+]([O-])c1cc(Cl)cc2cc(Br)cnc12	MALME-3M melanoma	> 31.6 µM
COc1ccc(OC)c(-c2cc(=O)c3c(OC)c(OC)c(OC)c(OC)c3o2)c1	MALME-3M melanoma	> 100 µM
Cc1ccc2c(=O)cc(-c3ccsc3)[nH]c2n1	MALME-3M melanoma	> 100 µM
Br/C(=N\Nc1nn[nH]n1)c1ccncc1	MALME-3M melanoma	> 100 µM
COc1cccc(Cc2cc(=O)c3ccc(C)nc3[nH]2)c1	MALME-3M melanoma	> 100 µM
O=c1[nH]cnc2c1CCCN2	MALME-3M melanoma	> 100 µM
COc1ccc2nc3ccccc3c(NCCCN(C)CCCl)c2c1	MALME-3M melanoma	1.55 µM
O=C1OC2CC=CC1C2 (stereo not given)	MALME-3M melanoma	> 100 µM
CCCCN(CCCC)CCCn1c(=O)c2c3ccccc3n(C)c2n2nnc(-c3ccccc3)c12	MALME-3M melanoma	90 µM
COC1O[C@H]2[C@H]3[C@@H]1[C@@H](OS(=O)(=O)c1ccc(C)cc1)C(=O)N3C[C@H]2O (stereo not given in full)	MALME-3M melanoma	> 100 µM
Clc1ccc(-c2ccc(-c3nn4c(CNc5ccccc5)nnc4s3)o2)c(Cl)c1	MALME-3M melanoma	> 100 µM
COC(=O)[C@H](Cc1ccc(O)cc1)NC(=O)[C@@H](OC)[C@@H]1Cc2cc3cc(OC4CC(OC5CC(O)C(O)C(C)O5)C(O)C(C)O4)c(C)c(O)c3c(O)c2C(=O)[C@H]1OC1CC(OC2CC(OC3CC(C)(O)C(O)C(C)O3)C(O)C(C)O2)C(O)C(C)O1 (stereo not given in full)	MALME-3M melanoma	0.492 µM
Nc1ncnc2c1ncn2[C@H]1CC[C@@H](NO)C1	MALME-3M melanoma	> 100 µM
O=C(/C(=C/c1ccc([N+](=O)[O-])cc1)SCc1ccc(F)cc1)c1ccc(Cl)cc1	MALME-3M melanoma	24.6 µM
CCOC(=O)C1=CC(C)(C(=O)OCC)Nc2c(nc(OC)[nH]c2=O)N1 (stereo not given)	MALME-3M melanoma	> 10 µM
